The reported numbers originate from patent US6512097.

- TARGET_ENTITY: T1, c-erbB-2 ECD with a Ser-Gly-His6 C-terminal fusion (UniProt P04626 23-652)
- T1 construct: extracellular domain; Expressed from CHO cells, IMAC purified; coupled to a CM5 chip, coated on plates, or biotinylated with NHS-LC-biotin; also called c-erbB-2 extracellular domain; biotinylated c-erbB-2 ECD
- EXPERIMENT_DESCRIPTION: SPR BIAcore
ASSAY_READOUT: Kd

# BINDER, ASSAY_READOUT, RECORDED_RESULT
rows = [
    ("C6.5K100gA (scFv, C6.5 VH CDR3 scan mutant; Kabat numbering) scFv: QVQLLQSGAELKKPGESLKISCKGSGYSFTSYWIAWVRQMPGKGLEYMGLIYPGDSDTKYSPSFQGQVTISVDKSVSTAYLQWSSLKPSDSAVYFCARHDVGYCSSSNCAAWPEYFQHWGQGTLVTVSSGGGGSGGGGSGGGGSQSVLTQPPSVSAAPGQKVTISCSGSSSNIGNNYVSWYQQLPGTAPKLLIYGHTNRPAGVPDRFSGSKSGTSASLAISGFRSEDEADYYCAAWDDSLSGWVFGGGTKLTVLG", "Kd", "9.8 nM"),
]
